meta.source: the NIST ThermoML archive (doi:10.1016/j.jct.2016.07.021)

- experimentalDetails: activity coefficient (dimensionless); of the first substance listed, at infinite dilution; xn = mol fraction of the nth substance listed
- measurementParameters: 313.15 K; 101.33 kPa; Liquid; Chromatography; x1 = 0
assayReadout: activity coefficient

CCCCCCCCC [nonane] + CCCCCCn1cc[n+](C)c1C.O=S(=O)([N-]S(=O)(=O)C(F)(F)F)C(F)(F)F = 21.5
Cc1ccc(C)cc1 [1,4-dimethylbenzene] + CCCCCCn1cc[n+](C)c1C.O=S(=O)([N-]S(=O)(=O)C(F)(F)F)C(F)(F)F = 1.39
CC#N [acetonitrile] + CCCCCCn1cc[n+](C)c1C.O=S(=O)([N-]S(=O)(=O)C(F)(F)F)C(F)(F)F = 0.45
Cc1ccccc1C [1,2-dimethylbenzene] + CCCCCCn1cc[n+](C)c1C.O=S(=O)([N-]S(=O)(=O)C(F)(F)F)C(F)(F)F = 1.17
Cc1ccccc1 [toluene] + CCCCCCn1cc[n+](C)c1C.O=S(=O)([N-]S(=O)(=O)C(F)(F)F)C(F)(F)F = 0.96
ClCCl [dichloromethane] + CCCCCCn1cc[n+](C)c1C.O=S(=O)([N-]S(=O)(=O)C(F)(F)F)C(F)(F)F = 0.74
CCOC(C)=O [ethyl acetate] + CCCCCCn1cc[n+](C)c1C.O=S(=O)([N-]S(=O)(=O)C(F)(F)F)C(F)(F)F = 0.83
C1=CCCCC1 [cyclohexene] + CCCCCCn1cc[n+](C)c1C.O=S(=O)([N-]S(=O)(=O)C(F)(F)F)C(F)(F)F = 3.36
